measured-target: HIV-1 protease (Human immunodeficiency virus type 1 group M subtype B, UniProt P04585)
Construct: The protease (or proteinase), consisting of only 99 amino acids, is among the smallest enzymes known
assay-details: In vitro HIV protease inhibitory assay (HIV Protease FITC Assay)
Type: biochemical
measurement-context: HIV-1 Dose 30.000 uM; read-out: HIV-1 Protease % Inhib
The compounds listed here are annotated with their inhibition at 30 µM.
Hi! Could you send only the number? It should be in %, unit omitted.

Before answering, review these 3 worked examples.
CCC(Cc1ccccc1)c1cc(O)c(C(c2cccc(NC(=O)Nc3ccccc3)c2)C2CC2)c(=O)o1 (stereo not shown) :: 69.6
CCC(Cc1ccccc1)c1cc(O)c(C(c2cccc(NC(=O)NCc3ccccc3)c2)C2CC2)c(=O)o1 (stereo not shown) :: 85.8
CCCC1(Cc2ccccc2)CC(O)=C(C(C=Cc2ccccc2)c2ccccc2)C(=O)O1 (stereo not shown) :: 101

Now for a further compound.
Dear colleague, please send me the reported inhibition at 30 µM for CCC(Cc1ccccc1)c1cc(O)c(C(c2cccc(NC(=O)CCn3ccc4ccccc43)c2)C2CC2)c(=O)o1 (stereo not shown) when you can. 85.3
